Some compounds, each annotated with its measured pEC50.
Biological target: GKRP (Glucokinase Regulatory Protein) with human His-hepatic GK (Homo sapiens)
Sequence (Q14397 1-625): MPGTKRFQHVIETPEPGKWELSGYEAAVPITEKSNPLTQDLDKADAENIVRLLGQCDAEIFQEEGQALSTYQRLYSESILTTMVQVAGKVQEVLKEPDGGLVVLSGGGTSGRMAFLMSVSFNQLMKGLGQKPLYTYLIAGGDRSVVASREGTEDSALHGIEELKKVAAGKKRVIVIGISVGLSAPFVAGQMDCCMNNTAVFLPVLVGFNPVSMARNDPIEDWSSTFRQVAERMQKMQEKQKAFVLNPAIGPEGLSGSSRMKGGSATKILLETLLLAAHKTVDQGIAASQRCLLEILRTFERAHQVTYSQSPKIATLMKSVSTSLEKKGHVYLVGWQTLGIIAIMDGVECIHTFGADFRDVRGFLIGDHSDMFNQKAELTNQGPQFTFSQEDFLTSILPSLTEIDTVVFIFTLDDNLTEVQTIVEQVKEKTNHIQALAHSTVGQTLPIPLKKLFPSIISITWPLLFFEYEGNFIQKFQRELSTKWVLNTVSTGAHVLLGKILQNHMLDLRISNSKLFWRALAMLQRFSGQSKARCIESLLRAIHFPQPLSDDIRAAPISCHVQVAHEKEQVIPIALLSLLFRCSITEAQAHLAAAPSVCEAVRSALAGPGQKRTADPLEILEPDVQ
Assay: GKRP NADPH Coupled Assay
Assay type: biochemical
Conditions: GK-GKRP EC50 (NADPH-coupled), indirect measure of glucose-6-phosphate, fluorescence; 1 μM GKRP (10×), 20 nM GK (5×)
pEC50: −log10 of the molar value. Where a name gives a salt, the structure may show the parent alone.

Compound: COc1cccc(-c2cc(C(O)(C(F)(F)F)C(F)(F)F)ccc2N2CCN(S(=O)(=O)c3cccs3)CC2)c1 [Example 70, trifluoroacetate]
pEC50: 5.48

Compound: C[C@H]1COCCN1CC1CN(S(=O)(=O)c2cccs2)CCN1c1ccc(C(C)(O)C(F)(F)F)cc1 (single isomer, unassigned) [Example 45 Peak #3]
pEC50: 4.82

Compound: CC(O)(c1ccc(N2CCN(S(=O)(=O)c3cccs3)CC2Cc2ccccc2F)cc1)C(F)(F)F (mixture of isomers)
pEC50: 6.29

Compound: CC(O)(c1ccc(N2CCN(S(=O)(=O)c3cccs3)CC2Cc2ccncc2)cc1)C(F)(F)F (mixture of isomers) [Example 76, trifluoroacetate]
pEC50: 6.68

Compound: CC(O)(c1ccc(N2CCN(S(=O)(=O)c3cccs3)CC2CC2CCOCC2)cc1)C(F)(F)F (single isomer, unassigned) [Example 37 Peak #2]
pEC50: 6.91

Compound: CC(O)(c1ccc(-c2ccc(S(=O)(=O)c3ccccc3)c(Cl)c2)cc1)C(F)(F)F (racemic)
pEC50: 5.45

Compound: O=S(=O)(c1ccccc1)c1ccc(-c2ccc(C(O)(C(F)(F)F)C(F)(F)F)cn2)cc1
pEC50: 5.79

Compound: CC1(C)CN(CC2CN(S(=O)(=O)c3cccs3)CCN2c2ccc(C(C)(O)C(F)(F)F)cc2)CCO1 (mixture of isomers)
pEC50: 6.74

Compound: CC(O)(c1ccc(N2CCN(S(=O)(=O)c3cccs3)CC2CN2CCOC(CO)C2)cc1)C(F)(F)F (mixture of isomers)
pEC50: 5.79

---

Target: GKRP (Glucokinase Regulatory Protein) with human His-hepatic GK (Homo sapiens)
Experiment: biochemical
Settings: 13C-glucose-6-phosphate formation; 280 nM GKRP (10×), 30 nM GK (5×); read-out: GK-GKRP EC50 (LC MS/MS-2)
Protocol: GKRP LC MS/MS-2 Biochemical Assay This assay is used to directly measure the formation of ^13C-glucose-6-phosphate from ^13C-glucose by LC MS/MS. Begin by preparing the following solutions: Compound Buffer (CB): 50 mM Tris, pH 7.5/4 mM MgCl2/6% DMSO/fresh 10 mM DTT from 1M frozen stock. Enzyme Buffer (EB): 50 mM Tris, pH 7.5/4 mM MgCl2/6% DMSO/fresh 0.1% BSA/fresh 0.01% Brij-35 (10% BSA and 1% Brij-35 stock). GK (Glucokinase) Working Stock (5×): Dilute human His-hepatic GK to 30 nM in EB buffer. […]
pEC50: −log10 of the molar value.
Threshold rule: pEC50 greater than or equal to 7 is T; below that, F.

Molecule: CC(C)N(C[C@H]1CN(S(=O)(=O)c2cccs2)CCN1c1ccc(C(C)(O)C(F)(F)F)cc1)S(=O)(=O)c1cccnc1 (mixture of isomers)
Group label: F
--
Molecule: CC1(C)C(=O)NC(=O)N1C[C@H]1CN(S(=O)(=O)c2cccs2)CCN1c1ccc(C(C)(O)C(F)(F)F)cc1 (mixture of isomers)
Group label: F
--
Molecule: C[C@H]1CN(S(=O)(=O)c2ccccc2N)CCN1c1ncc(C(O)(C(F)(F)F)C(F)(F)F)cn1
Group label: F
--
Molecule: CC1CNC(=O)CN1C[C@H]1CN(S(=O)(=O)c2cccs2)CCN1c1ccc(C(C)(O)C(F)(F)F)cc1 (mixture of isomers)
Group label: F
--
Molecule: CS(=O)(=O)N(C[C@H]1CN(S(=O)(=O)c2ccc(N)nc2)CCN1c1ncc(C(O)(C(F)(F)F)C(F)(F)F)cn1)c1ccccc1
Group label: T
--
Molecule: CS(=O)(=O)NCC#Cc1cc(C(O)(C(F)(F)F)C(F)(F)F)ccc1N1CCN(S(=O)(=O)c2cccs2)CC1
Group label: F
--
Molecule: C[C@H]1CN(S(=O)(=O)c2nccs2)CCN1c1ncc(C(O)(C(F)(F)F)C(F)(F)F)cn1
Group label: F
--
Molecule: C[C@H]1CN(S(=O)(=O)c2ccc(N)nc2)CCN1c1ccc(C(O)(C(F)(F)F)C(F)(F)F)cc1
Group label: F
--
Molecule: C[C@H]1COCCN1C[C@H]1CN(S(=O)(=O)c2ccc(N)nc2)CCN1c1ncc(C(O)(C(F)(F)F)C(F)(F)F)cn1
Group label: T
--
Molecule: CC(O)(c1ccc(N2CCN(S(=O)(=O)c3cccs3)C[C@@H]2CN2C3COCC2C(O)C3)cc1)C(F)(F)F (single isomer, unassigned) [Example 78 Peak #3]
Group label: T
--
Molecule: CC(C)C1C(=O)NCCN1C[C@H]1CN(S(=O)(=O)c2cccs2)CCN1c1ncc(C(O)(C(F)(F)F)C(F)(F)F)cn1 (mixture of isomers)
Group label: T
--
Molecule: CC(O)(c1ccc(N2CCN(S(=O)(=O)c3cccs3)C[C@@H]2CN2C3COCC2C(O)C3)cc1)C(F)(F)F (single isomer, unassigned) [Example 78 Peak #4]
Group label: T
--
Molecule: CC(O)(c1ccc(N2CCN(S(=O)(=O)c3cccs3)C[C@@H]2CN(c2ccccc2)S(C)(=O)=O)cc1)C(F)(F)F (mixture of isomers)
Group label: T
--
Molecule: CC(F)(c1ccc(N2CCN(S(=O)(=O)c3cccs3)C[C@@H]2CN2C3CCCC2CC(F)C3)cc1)C(F)(F)F (mixture of isomers)
Group label: F

---

molecular target: GKRP (Glucokinase Regulatory Protein) with human His-hepatic GK (Homo sapiens); assay: biochemical; settings: 13C-glucose-6-phosphate formation; 280 nM GKRP (10×), 30 nM GK (5×); read-out: GK-GKRP EC50 (LC MS/MS-2)
pEC50: −log10 of the molar value.
Measure name: pEC50

Compound: CC(O)(c1ccc(N2CCN(S(=O)(=O)c3ccc(N)s3)C[C@@H]2Cc2ccccc2)cc1)C(F)(F)F (mixture of isomers)
Measure name: pEC50
Observed result: 6.84

Compound: O=S(=O)(c1cccs1)N1CCN(c2ccc(C(O)(C(F)(F)F)C(F)(F)F)cc2)C(Cc2ccccc2O)C1 (racemic)
Measure name: pEC50
Observed result: 7.08

Compound: COc1ccccc1CC1CN(S(=O)(=O)c2cccs2)CCN1c1ccc(C(O)(C(F)(F)F)C(F)(F)F)cc1 (racemic)
Measure name: pEC50
Observed result: 6.94

---

Molecular target: interaction between glucokinase (GK) and glucokinase regulatory protein (GKRP) (Homo sapiens, UniProt Q14397)
Sequence (Q14397 1-625): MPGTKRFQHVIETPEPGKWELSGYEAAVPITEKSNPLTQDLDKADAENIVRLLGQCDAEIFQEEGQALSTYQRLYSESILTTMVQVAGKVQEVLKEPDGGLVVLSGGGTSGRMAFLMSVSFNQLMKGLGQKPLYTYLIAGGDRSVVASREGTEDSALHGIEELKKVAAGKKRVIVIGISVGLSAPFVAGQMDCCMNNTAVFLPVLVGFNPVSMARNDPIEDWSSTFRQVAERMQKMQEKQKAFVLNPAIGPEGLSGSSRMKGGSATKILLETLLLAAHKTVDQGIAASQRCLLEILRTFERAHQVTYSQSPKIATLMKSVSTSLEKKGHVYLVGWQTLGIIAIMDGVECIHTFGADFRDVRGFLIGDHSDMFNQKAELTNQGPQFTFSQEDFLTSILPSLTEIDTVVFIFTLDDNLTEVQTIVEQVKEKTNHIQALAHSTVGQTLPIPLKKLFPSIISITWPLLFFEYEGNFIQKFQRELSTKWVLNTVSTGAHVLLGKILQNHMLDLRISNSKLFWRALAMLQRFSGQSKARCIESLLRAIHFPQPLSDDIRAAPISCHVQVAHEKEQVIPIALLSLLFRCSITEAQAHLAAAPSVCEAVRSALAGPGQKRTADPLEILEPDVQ
Assay: biochemical
Format: binding
Settings: avi-tagged GKRP, GK-fluorescein, AlphaScreen beads; read-out: GK-GKRP IC50 (Binding)
Some molecules, each annotated with its measured IC50.

Molecule: CN(C)C(=O)CC1COCCN1C[C@H]1CN(S(=O)(=O)c2cccs2)CCN1c1ccc(C(C)(O)C(F)(F)F)cc1 (mixture of isomers)
IC50 (nM): 90
//
Molecule: CC(C)CN(C[C@H]1CN(S(=O)(=O)c2cccnc2N)CCN1c1ncc(C(O)(C(F)(F)F)C(F)(F)F)cn1)S(C)(=O)=O
IC50 (nM): 64
//
Molecule: CC(C)CN(C[C@H]1CN(S(=O)(=O)c2cccs2)CCN1c1ccc(C(C)(O)C(F)(F)F)cc1)S(=O)(=O)N(C)C (mixture of isomers)
IC50 (nM): 70
//
Molecule: Nc1ccc(S(=O)(=O)N2CCN(c3ncc(C(O)(C(F)(F)F)C(F)(F)F)cn3)[C@@H](CC3CCOCC3)C2)cn1
IC50 (nM): 62
